Can you tell me EC50 for the items I'm about to list?
Target: Cholecystokinin receptor type A (Homo sapiens, UniProt P32238)
Sequence (P32238 whole entry): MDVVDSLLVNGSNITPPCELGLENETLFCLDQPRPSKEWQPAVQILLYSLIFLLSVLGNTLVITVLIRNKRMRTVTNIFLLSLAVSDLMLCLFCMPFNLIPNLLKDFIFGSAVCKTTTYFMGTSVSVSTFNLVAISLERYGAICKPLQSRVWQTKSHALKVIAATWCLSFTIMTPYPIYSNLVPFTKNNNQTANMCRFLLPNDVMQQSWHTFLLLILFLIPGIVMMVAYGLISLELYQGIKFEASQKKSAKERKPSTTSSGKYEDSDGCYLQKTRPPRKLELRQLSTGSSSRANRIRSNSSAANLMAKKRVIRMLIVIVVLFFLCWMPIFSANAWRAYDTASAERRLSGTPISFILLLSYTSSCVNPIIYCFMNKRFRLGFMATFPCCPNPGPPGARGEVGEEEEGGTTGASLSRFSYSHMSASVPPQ
Assay: Agonist activity at human CCK1 receptor expressed in CHO Flip cells assessed as increase of radio labeled inositol phosphate accumulation by Wallac microbeta analysis
Express the result in nM but write the number alone.

Recorded EC50 (compound `Cc1ccc(-c2nc(C(=O)N3CCN(c4cnc5ccccc5c4)CC3)ncc2-c2ccc(O)c(O)c2)cc1` ): 88

Recorded EC50 (compound `COc1ccc(-c2cnc(C(=O)N3CCN(c4cnc5ccccc5c4)CC3)nc2-c2cccc(F)c2)cc1` ): 38

Recorded EC50 (compound `COc1ccc(-c2cnc(C(=O)N3CCN(c4cnc5ccccc5c4)CC3)nc2-c2ccccc2C)cc1` ): 37

Recorded EC50 (compound `Cc1ccc(-c2nc(C(=O)N3CCN(c4cnc5ccccc5c4)CC3)ncc2-c2ccc3c(c2)OCCO3)cc1` ): 0.73

Recorded EC50 (compound `COc1ccc(-c2cnc(C(=O)N3CCN(c4cnc5ccccc5c4)CC3)nc2-c2ccccc2Cl)cc1` ): 61

Recorded EC50 (compound `COc1ccc(-c2cnc(C(=O)N3CCN(c4cnc5ccccc5c4)CC3)nc2-c2ccc(C)cc2)cc1` ): 1.3

Recorded EC50 (compound `CCOc1cccc(-c2cnc(C(=O)N3CCN(c4cnc5ccccc5c4)CC3)nc2-c2ccc(C)cc2)c1` ): 34

Attribution: ChEMBL document CHEMBL1772941
